Origin of the recorded values: PubChem BioAssay

Test system: XIP peptide (Xip251-270)
protocol: small-molecule binders of XIP peptide, primary screen, biochemical, small-molecule microarray, fluorescence 635/667 nm, 0.5 µg/mL protein (AID 1183)
cond: small-molecule microarray binding, fluorescence 635 nm; higher = more signal
Attribute: composite z-score

Example entries begin here.
INSERT INTO results (compound, target_desc, readout_kind, value_reported) VALUES
  ('CCN1C(=O)[C@H]2[C@H]3[C@H](O)[C@H](O)CC(=NO[C@H](C)c4cn([C@H](CO)Cc5ccccc5)nn4)[C@@H]3CC[C@H]2C1=O', 'XIP peptide (Xip251-270)', 'composite z-score', 0.722),
  ('CC(C)CON=C1C[C@@H](O)[C@@H](O)[C@@H]2[C@@H]3C(=O)N(Cc4ccccc4)C(=O)[C@@H]3CC[C@H]12', 'XIP peptide (Xip251-270)', 'composite z-score', 0.106);

-- ask For XIP peptide (Xip251-270), give composite z-score of the listed compound: CCOC(=O)[C@H](Cc1ccccc1)NC(=O)CCC1CC(OC(=O)NCc2cccc3ccccc23)CC2(CCCC(COC(=O)NCc3ccc4c(c3)OCO4)O2)O1 (stereo not given in full)
-- reply 0.818

-- ask For XIP peptide (Xip251-270), give composite z-score of the listed compound: COC(=O)[C@H](C)NC(=O)CCC1CC(OC(=O)NCc2ccc3c(c2)OCO3)CC2(CCCC(COC(=O)NCCCN3CCCC3=O)O2)O1 (stereo not given in full)
-- reply 0.612

-- ask For XIP peptide (Xip251-270), give composite z-score of the listed compound: CON(C)C(=O)c1nnc2c(n1)[nH]c1ccccc12
-- reply 0.755

-- ask For XIP peptide (Xip251-270), give composite z-score of the listed compound: CO[C@@H]1[C@H](O)CO[C@H]1C=Cc1ccccc1
-- reply 0.836

-- ask For XIP peptide (Xip251-270), give composite z-score of the listed compound: COC(=O)[C@H](C)NC(=O)CC=C[C@@H](C)[C@@H]1C=C[C@H](O)[C@@H](CO)O1
-- reply 0.0241

-- ask For XIP peptide (Xip251-270), give composite z-score of the listed compound: CC(C)CON=C1[C@H]2CCn3c(=O)n(C)c(=O)n3[C@H]2[C@H](O)[C@@H]2O[C@H]12
-- reply 0.245

-- ask For XIP peptide (Xip251-270), give composite z-score of the listed compound: CC(C)=NO[C@@H](C)c1cn([C@H](CO)Cc2ccccc2)nn1
-- reply 0.241

-- ask For XIP peptide (Xip251-270), give composite z-score of the listed compound: COC(OC)[C@@H](C)[C@H](OC)[C@@H](C)[C@H](OC)c1ccccc1
-- reply -0.0245

-- ask For XIP peptide (Xip251-270), give composite z-score of the listed compound: O=C1C=C[C@@H](O)[C@@H]2[C@@H]3C(=O)N(C4CCCCC4)C(=O)[C@@H]3CC[C@@H]12
-- reply 0.178

-- ask For XIP peptide (Xip251-270), give composite z-score of the listed compound: CCOC(=O)[C@H](CC(C)C)NC(=O)CCC1CC(OC(=O)NCCc2ccc(F)cc2)CC2(CCCC(COC(=O)NCc3cccc(C(F)(F)F)c3)O2)O1 (stereo not given in full)
-- reply 0.575

-- ask For XIP peptide (Xip251-270), give composite z-score of the listed compound: COC(=O)[C@H](C)NC(=O)CCC1CC(OC(=O)NCc2cccc3ccccc23)CC2(CCCC(COC(=O)NCCCN3CCCC3=O)O2)O1 (stereo not given in full)
-- reply 0.582

-- ask For XIP peptide (Xip251-270), give composite z-score of the listed compound: COc1ccc(O[C@H]2C=C[C@@H](C#Cc3ccccc3)O[C@@H]2CO)cc1
-- reply 0.266

-- ask For XIP peptide (Xip251-270), give composite z-score of the listed compound: COc1ccc2c(c1)O[C@@H](c1cccc(C(F)(F)F)c1)[C@H](O)C2=O
-- reply -0.233

-- ask For XIP peptide (Xip251-270), give composite z-score of the listed compound: O=C1[C@H]2[C@H]3[C@H](O)[C@H](O)CC(=NO[C@@H]4O[C@H](CO)[C@@H](O)[C@H](O)[C@H]4O)[C@@H]3CC[C@H]2C(=O)N1C[C@@H]1CCCO1
-- reply 0.385

-- ask For XIP peptide (Xip251-270), give composite z-score of the listed compound: COc1ccc(COC(=O)NN=C2C[C@@H](O)[C@@H](O)[C@@H]3[C@@H]4C(=O)N(C5CCCCC5)C(=O)[C@@H]4CC[C@@H]23)cc1
-- reply 0.0499

-- ask For XIP peptide (Xip251-270), give composite z-score of the listed compound: O=C1[C@H]2[C@H]3[C@H](O)[C@H](O)CC(=NOC[C@@H](O)COCc4ccco4)[C@@H]3CC[C@H]2C(=O)N1C1CCCCC1
-- reply 0.306

###

Attribute: composite z-score
protocol: small-molecule microarray binders of probe aEGFR, primary screen, biochemical, biotinylated probe, 635/667 nm fluorescence (AID 1097);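 also: probe is a biotinylated anti-EGFR antibody binding compounds printed on slides; score combines fluorescence near 667 nm and signal to noise of each spot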
cond: higher = more signal

Example entries begin here.
INSERT INTO results (compound, value_reported) VALUES
  ('C[C@@H](c1ccccc1)N1C(=O)[C@H]2[C@H]3[C@H](O)[C@H](O)CC(=NNC(=O)OCc4ccccc4)[C@@H]3CC[C@H]2C1=O', -0.508),
  ('CC(=O)OC[C@H]1O[C@@H](ON=C(C)CCN2CCCCc3nc(C)c(C)cc32)[C@H](OC(C)=O)[C@@H](OC(C)=O)[C@@H]1OC(C)=O', 0.145),
  ('COc1ccc(COC(=O)NN=C2C[C@@H](O)[C@@H](O)[C@@H]3[C@@H]4C(=O)N([C@@H](C)c5ccccc5)C(=O)[C@@H]4CC[C@H]23)cc1', -0.137),
  ('Cc1ccc2[nH]c3nc(CCCn4ccnc4-c4ccccc4)nnc3c2c1', -0.009),
  ('CCOC(=O)NN=C1C[C@@H](O)[C@@H](O)[C@@H]2[C@@H]3C(=O)N(C[C@@H]4CCCO4)C(=O)[C@@H]3CC[C@H]12', -0.0668);

-- ask Specify reported composite z-score for the compound shown: CCOC(=O)[C@H](Cc1ccccc1)NC(=O)CCC1CC(OC(=O)NCc2ccc3c(c2)OCO3)CC2(CCCC(COC(=O)NCCOc3ccccc3)O2)O1 (stereo not given in full)
-- reply 0.0436

-- ask Specify reported composite z-score for the compound shown: CC(CCC(=O)OC[C@H]1O[C@H](C#Cc2ccccc2)C=C[C@@H]1Oc1ccc(C)cc1)=NOC(C)CN1CCCCc2nc(C)c(C)cc21 (stereo not given in full)
-- reply -0.18

###

protocol: basal HepG2 mitochondrial membrane potential changes, profiling panel, cell-based, JC-1 fluorescence, 24 h, 100 nL compound (AID 1167)
cond: higher = more signal
I would appreciate it if you labelled entries Yes when z-score is -0.7 or higher, otherwise No.

Reference set (10 entries):
INSERT INTO assay_data (compound, class_assignment) VALUES
  ('O=C1[C@H]2[C@H]3[C@H](O)[C@H](O)CC(=NOC[C@@H](O)COCc4ccco4)[C@@H]3CC[C@H]2C(=O)N1C1CCCCC1', 'No'),
  ('O=C1[C@H]2[C@H]3[C@H](O)[C@H](O)CC(=NOC[C@@H](O)COCc4ccco4)[C@@H]3CC[C@H]2C(=O)N1c1cccc(Oc2ccccc2)c1', 'Yes'),
  ('COC(=O)CC=C[C@@H](C)[C@@H](C=NOC(C)CN1CCCCc2nc(C)c(C)cc21)OC (stereo not given in full)', 'Yes'),
  ('CC(C)CON=C1C[C@@H](O)[C@@H](O)[C@@H]2[C@@H]3C(=O)N([C@@H](C)c4ccccc4)C(=O)[C@@H]3CC[C@@H]12', 'No'),
  ('CC(C)=NOC[C@@H](O)[C@H]1O[C@@H]2OC(C)(C)O[C@@H]2[C@H]1O', 'Yes'),
  ('C[C@H]1CC[C@@H](C(=O)O)N[C@@H]1c1ccc(C#Cc2ccccc2)cc1', 'No'),
  ('CCOC(=O)[C@H](Cc1ccccc1)NC(=O)CCC1CC(OC(=O)NCc2ccc3c(c2)OCO3)CC2(CCCC(COC(=O)NCCCN3CCCC3=O)O2)O1 (stereo not given in full)', 'Yes'),
  ('O=C(NCCC[N+]1=CC=NC1c1ccccc1)N1CCCc2nc(-c3ccc(Br)cc3)ccc21 (stereo not given)', 'Yes'),
  ('COC(=O)[C@H](C)NC(=O)CCC1CC(OC(=O)NCc2ccc3c(c2)OCO3)CC2(CCCC(COC(=O)NCc3ccccc3)O2)O1 (stereo not given in full)', 'Yes'),
  ('CC(=O)OC[C@H]1O[C@H](CC=NO[C@@H](C)c2cc(-c3c(C)cc(C)cc3C)no2)C=C[C@@H]1OC(C)=O', 'Yes');

-- ask Could you tell me if the measured z-score of CC(C)(C)N1C(=O)[C@H]2[C@H]3[C@H](O)[C@H](O)CC(=NNC(=O)OCc4ccccc4)[C@H]3CC[C@H]2C1=O reaches -0.7 or more?
-- reply Yes

-- ask Could you tell me if the measured z-score of CO[C@@H](C1CCCCC1)[C@@H](C)[C@H](OCc1cccc(Br)c1)[C@@H](C)CO reaches -0.7 or more?
-- reply No

-- ask Could you tell me if the measured z-score of CCOC(=O)[C@H](CC(C)C)NC(=O)CCC1CC(OC(=O)NCCc2ccc(F)cc2)CC2(CCCC(COC(=O)NCc3cccc4ccccc34)O2)O1 (stereo not given in full) reaches -0.7 or more?
-- reply Yes
